test system: M21; test: Antiproliferative activity against human M21 cells after 48 hrs by sulforhodamine B assay; format: functional, cell-based; details: M21, 48 h
pIC50: −log10 of the molar value.
Class 1: pIC50 at least 7. Class 0: pIC50 below 7.

COc1ccc(OS(=O)(=O)c2ccc(N3CCNC3=O)cc2)cc1OC	1

Query block: Say whether `Cc1cc(C)cc(OS(=O)(=O)c2ccc(N3CCNC3=O)cc2)c1` shows pIC50 of 7 or more.
Result block: 1

Query block: Param item: `Cc1cc(OS(=O)(=O)c2ccc(N3CCNC3=O)cc2)ccc1N`
Result block: 0

Query block: Param item: `CC(C)(C)[Si](C)(C)Oc1ccc(OS(=O)(=O)c2ccc(N3CCNC3=O)cc2)cc1`
Result block: 0

###

tested on: HT-29; assay: Antiproliferative activity against human HT-29 cells after 48 hrs by sulforhodamine B assay; type: functional, cell-based; conditions: HT-29, 48 h
pIC50: −log10 of the molar value.
Would you please tag the item rule met when its pIC50 is 7 or above, and rule not met when it is below?

CN(C)c1ccc(OS(=O)(=O)c2ccc(N3CCNC3=O)cc2)cc1	rule not met
CCOc1ccccc1OS(=O)(=O)c1ccc(N2CCNC2=O)cc1	rule met
COc1cc(OS(=O)(=O)c2ccc(N3CCNC3=O)cc2)cc(OC)c1OC	rule met
O=C1NCCN1c1ccc(S(=O)(=O)Oc2cccc(I)c2)cc1	rule met
CCOc1ccc(OS(=O)(=O)c2ccc(N3CCNC3=O)cc2)cc1	rule met

# evaluate next
Query block: Is it the case that `O=C1NCCN1c1ccc(S(=O)(=O)Oc2ccccc2F)cc1` has pIC50 reaching or exceeding 7?
Result block: rule met

###

system: M21; test: Cell cycle arrest in human M21 cells assessed as accumulation at G0/G1 phase at 5 times IC50 after 24 hrs using propidium iodide staining by flow cytometric analysis (reference value: 61%); assay type: functional
In this section, each of the compounds is paired with its reported Activity.
API: value field is a number in %; no unit string.

The following compounds have reported results that may help.
O=C1NCCN1c1ccc(S(=O)(=O)Oc2cccc(I)c2)cc1	2
Cc1ccccc1OS(=O)(=O)c1ccc(N2CCNC2=O)cc1	11
CCCc1ccccc1OS(=O)(=O)c1ccc(N2CCNC2=O)cc1	0
Cc1ccc(C)c(OS(=O)(=O)c2ccc(N3CCNC3=O)cc2)c1	3
Cc1ccc(OS(=O)(=O)c2ccc(N3CCNC3=O)cc2)cc1	32

The record that follows has no Activity shown yet.
Query block: Value lookup for Activity; key = `CCCc1cccc(OS(=O)(=O)c2ccc(N3CCNC3=O)cc2)c1`
Result block: 2

###

system: CHO; experiment: Antiproliferative activity against CHO cells after 48 hrs by sulforhodamine B assay; type: functional, cell-based; conditions: Cricetulus griseus
METRIC NAME: log10(IC50) (log10 of the value in nM)
Give log10 of IC50, with IC50 taken in nM.

CCOc1cccc(OS(=O)(=O)c2ccc(N3CCNC3=O)cc2)c1	1.51
Cc1ccc(C)c(OS(=O)(=O)c2ccc(N3CCNC3=O)cc2)c1	1.26
CC(=O)O[C@H]1C(=O)[C@@]2(C)[C@H]([C@H](OC(=O)c3ccccc3)[C@]3(O)C[C@H](OC(=O)[C@H](O)[C@@H](NC(=O)c4ccccc4)c4ccccc4)C(C)=C1C3(C)C)[C@]1(OC(C)=O)CO[C@@H]1C[C@@H]2O [PACLITAXEL]	2.23
COc1ccc(OS(=O)(=O)c2ccc(N3CCNC3=O)cc2)cc1	2.38
O=C1NCCN1c1ccc(S(=O)(=O)Oc2c(F)cccc2F)cc1	1.86

Query block: Request: log10(IC50), test system CHO, entry CC[C@]1(O)C[C@@H]2CN(CCc3c([nH]c4ccccc34)[C@@](C(=O)OC)(c3cc4c(cc3OC)N(C)[C@H]3[C@@](O)(C(=O)OC)[C@H](OC(C)=O)[C@]5(CC)C=CCN6CC[C@]43[C@@H]65)C2)C1 [VINBLASTINE]
Result block: 1.23

Query block: Field entry: `O=C1NCCN1c1ccc(S(=O)(=O)Oc2cccc(Cl)c2)cc1`
Result block: 1.26
